The following compounds are listed with their measured pKi values.
- TARGET_OR_TEST_SYSTEM: Carbonic anhydrase 9 (Homo sapiens, UniProt Q16790)
- ASSAY: Inhibition of human recombinant CA9 catalytic domain by stopped flow CO2 hydration assay
Scale for pKi: -log10 of concentration given in mol/L; no unit attached.

CC(=O)OC[C@H]1OC(NS(=O)(=O)NO)C=C[C@H]1OC(C)=O (some centres undefined)	7.10
CC(=O)OC[C@H]1OC(NS(=O)(=O)NO)C=C[C@@H]1OC(C)=O (some centres undefined)	7.05
CC(=O)O[C@@H]1C=CC(NS(=O)(=O)NO)O[C@H]1C (some centres undefined)	7.33

Lab note: next compound to report on.
Give the value of pKi reported for the following: O=S(=O)(NO)NC1C=C[C@H](O)CO1 (some centres undefined)
8.10
